Values from the CheMixHub viscosity set

experiment: xn = mol fraction of the nth substance listed; details: 313.15 K; 101.33 kPa; x2 = 0.45
Consider the following molecules; for each one, report its viscosity.
Answer format: numeric, mPa·s implied, no suffix.

// query Item CC[N+](=O)[O-] + CO has what recorded viscosity?
// result 0.442

// query Item CC[N+](=O)[O-] + CCC(C)O has what recorded viscosity?
// result 0.64

// query Item CC[N+](=O)[O-] + CCO has what recorded viscosity?
// result 0.519

// query Item CC[N+](=O)[O-] + CCCO has what recorded viscosity?
// result 0.623

* * *

experiment: xn = mol fraction of the nth substance listed; conditions: 313.15 K; 101.33 kPa; x2 = 0.5
readout-kind: viscosity (mPa·s)
Answer format: numeric, mPa·s implied, no suffix.

// query Item CC[N+](=O)[O-] + CCCO has what recorded viscosity?
// result 0.655

// query Item CC[N+](=O)[O-] + CO has what recorded viscosity?
// result 0.438

// query Item CC[N+](=O)[O-] + CC(C)O has what recorded viscosity?
// result 0.597

// query Item CC[N+](=O)[O-] + CCO has what recorded viscosity?
// result 0.528

// query Item CC[N+](=O)[O-] + CCC(C)O has what recorded viscosity?
// result 0.675

* * *

assay: xn = mol fraction of the nth substance listed; details: 313.15 K; 101.33 kPa; x2 = 0.9
readout-kind: viscosity (mPa·s)
Answer format: numeric, mPa·s implied, no suffix.

// query Item CC[N+](=O)[O-] + CC(C)O has what recorded viscosity?
// result 1.021

// query Item CC[N+](=O)[O-] + CCO has what recorded viscosity?
// result 0.715

// query Item CC[N+](=O)[O-] + CO has what recorded viscosity?
// result 0.434

// query Item CC[N+](=O)[O-] + CCCO has what recorded viscosity?
// result 1.125

* * *

test: xn = mol fraction of the nth substance listed; details: 313.15 K; 101.33 kPa; x2 = 0.95
readout-kind: viscosity (mPa·s)
Answer format: numeric, mPa·s implied, no suffix.

// query Item CC[N+](=O)[O-] + CC(C)(C)O has what recorded viscosity?
// result 1.718

// query Item CC[N+](=O)[O-] + CCCO has what recorded viscosity?
// result 1.239

// query Item CC[N+](=O)[O-] + CC(C)O has what recorded viscosity?
// result 1.16

// query Item CC[N+](=O)[O-] + CO has what recorded viscosity?
// result 0.437

* * *

details: 298.15 K; 100 kPa
readout-kind: viscosity (mPa·s)
Answer format: numeric, mPa·s implied, no suffix.

// query Item `OC1CCCCCC1` has what recorded viscosity?
// result 53.6

// query Item `CCn1ccnc1` has what recorded viscosity?
// result 1.93

// query Item `CCCCN` has what recorded viscosity?
// result 0.468

// query Item `CCCCCCCCCC(=O)OCC` has what recorded viscosity?
// result 2.112

* * *

Consider the following compounds; for each one, report its viscosity.
experiment: xn = mol fraction of the nth substance listed; details: 293.15 K; 101.33 kPa; x2 = 0.3
Answer format: numeric, mPa·s implied, no suffix.

// query Item CC[N+](=O)[O-] + CO has what recorded viscosity?
// result 0.584

// query Item CC[N+](=O)[O-] + CC(C)O has what recorded viscosity?
// result 0.707

// query Item CC[N+](=O)[O-] + CCCO has what recorded viscosity?
// result 0.748

// query Item CC[N+](=O)[O-] + CCO has what recorded viscosity?
// result 0.651

* * *

experiment: xn = mol fraction of the nth substance listed; settings: 303.15 K; 101.33 kPa; x2 = 0.6
readout-kind: viscosity (mPa·s)
Answer format: numeric, mPa·s implied, no suffix.

// query Item CC[N+](=O)[O-] + CC(C)(C)O has what recorded viscosity?
// result 0.958

// query Item CC[N+](=O)[O-] + CCO has what recorded viscosity?
// result 0.636

// query Item CC[N+](=O)[O-] + CCCO has what recorded viscosity?
// result 0.852

// query Item CC[N+](=O)[O-] + CO has what recorded viscosity?
// result 0.487

* * *

experiment: xn = mol fraction of the nth substance listed; settings: 303.15 K; 101.33 kPa; x2 = 0.45
± gives the uncertainty stated by the source.
Consider the following compounds; for each one, report its viscosity.
Hey, just the number and the unit after it is fine.

// query Item CC[N+](=O)[O-] + CO has what recorded viscosity?
// result 0.498 ± 0.005 mPa·s

// query Item CC[N+](=O)[O-] + CCO has what recorded viscosity?
// result 0.593 ± 0.005 mPa·s

// query Item CC[N+](=O)[O-] + CCCO has what recorded viscosity?
// result 0.724 ± 0.006 mPa·s

// query Item CC[N+](=O)[O-] + CCC(C)O has what recorded viscosity?
// result 0.75 ± 0.007 mPa·s

* * *

assay: xn = mol fraction of the nth substance listed; settings: 313.15 K; 101.33 kPa; x2 = 0.25
readout-kind: viscosity (mPa·s)
Answer format: numeric, mPa·s implied, no suffix.

// query Item CC[N+](=O)[O-] + CO has what recorded viscosity?
// result 0.471

// query Item CC[N+](=O)[O-] + CCO has what recorded viscosity?
// result 0.507

// query Item CC[N+](=O)[O-] + CC(C)O has what recorded viscosity?
// result 0.53

// query Item CC[N+](=O)[O-] + CCC(C)O has what recorded viscosity?
// result 0.555

// query Item CC[N+](=O)[O-] + CCCO has what recorded viscosity?
// result 0.554

* * *

Consider the following molecules; for each one, report its viscosity.
assay: xn = mol fraction of the nth substance listed; settings: 303.15 K; 101.33 kPa; x2 = 0.5
± gives the uncertainty stated by the source.

// query Item CC[N+](=O)[O-] + CC(C)O has what recorded viscosity?
// result 0.697 ± 0.015 mPa·s

// query Item CC[N+](=O)[O-] + CO has what recorded viscosity?
// result 0.493 ± 0.005 mPa·s

// query Item CC[N+](=O)[O-] + CCCO has what recorded viscosity?
// result 0.758 ± 0.007 mPa·s

// query Item CC[N+](=O)[O-] + CCO has what recorded viscosity?
// result 0.603 ± 0.005 mPa·s

// query Item CC[N+](=O)[O-] + CCC(C)O has what recorded viscosity?
// result 0.8 ± 0.007 mPa·s

* * *

assay: xn = mol fraction of the nth substance listed; conditions: 293.15 K; 101.33 kPa; x2 = 0.5
Consider the following compounds; for each one, report its viscosity.
Answer format: numeric, mPa·s implied, no suffix.

// query Item CC[N+](=O)[O-] + CC(C)O has what recorded viscosity?
// result 0.827

// query Item CC[N+](=O)[O-] + CCCO has what recorded viscosity?
// result 0.898

// query Item CC[N+](=O)[O-] + CCC(C)O has what recorded viscosity?
// result 0.971

// query Item CC[N+](=O)[O-] + CCO has what recorded viscosity?
// result 0.697

// query Item CC[N+](=O)[O-] + CO has what recorded viscosity?
// result 0.559

* * *

Consider the following molecules; for each one, report its viscosity.
test: xn = mol fraction of the nth substance listed; conditions: 293.15 K; 101.33 kPa; x2 = 0.25
± gives the uncertainty stated by the source.

// query Item CC[N+](=O)[O-] + CCC(C)O has what recorded viscosity?
// result 0.727 ± 0.006 mPa·s

// query Item CC[N+](=O)[O-] + CC(C)O has what recorded viscosity?
// result 0.698 ± 0.015 mPa·s

// query Item CC[N+](=O)[O-] + CO has what recorded viscosity?
// result 0.593 ± 0.005 mPa·s

// query Item CC[N+](=O)[O-] + CCCO has what recorded viscosity?
// result 0.72 ± 0.006 mPa·s

// query Item CC[N+](=O)[O-] + CCO has what recorded viscosity?
// result 0.65 ± 0.006 mPa·s

* * *

assay: xn = mol fraction of the nth substance listed; settings: 313.15 K; 101.33 kPa; x2 = 0.4
Consider the following molecules; for each one, report its viscosity.
Answer format: numeric, mPa·s implied, no suffix.

// query Item CC[N+](=O)[O-] + CO has what recorded viscosity?
// result 0.448

// query Item CC[N+](=O)[O-] + CCC(C)O has what recorded viscosity?
// result 0.61

// query Item CC[N+](=O)[O-] + CC(C)(C)O has what recorded viscosity?
// result 0.622

// query Item CC[N+](=O)[O-] + CCO has what recorded viscosity?
// result 0.513

// query Item CC[N+](=O)[O-] + CCCO has what recorded viscosity?
// result 0.609

// query Item CC[N+](=O)[O-] + CC(C)O has what recorded viscosity?
// result 0.559
